Each item that follows carries a reported growth inhibition.
Assay Comment: NCI Yeast Anticancer Drug Screen. Data for the mlh1 strain (AID 171);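 further: 0% = growth of vehicle-treated control cultures of the same strain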
Measurement Context: S. cerevisiae mlh1 strain growth inhibition; at 33.0 µM; stronger effect = higher value
About 79,000 compounds went through this panel and 15% of them were active in at least one assay; those are over-represented in the sample as a whole.
Value expressed in %; do not type the unit.

In the examples that follow, each entry is paired with its recorded growth inhibition.
Compound	U	Measured Result
CCOC(=O)C1=C(C)NC(C)=C(C(=O)OCC)C1c1ccc(Cl)cc1	%	84
C[Si](C)(C)Cc1ccccc1C(=O)O	%	42
COc1ccc2nc(N/N=C/c3sccc3C)cc(C)c2c1	%	97

Now consider the entry below.
**Q:** Look up growth inhibition of CN(Cc1cccc2ccccc12)Cc1cccc2ccccc12 and report it.
**A:** -10

---

Assay Comment: NCI Yeast Anticancer Drug Screen. Data for the sgs1 mgt1 strain (AID 161);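 further: 0% = growth of cultures given vehicle only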
Measurement Context: S. cerevisiae sgs1 mgt1 strain, at 5.0 µM (retest, dose inferred, filed as 0.5)
This is part of a sample that, as a whole, favours compounds with a hit. Of some 79,000 tested, about 15% had one in any assay. The source made the active and inactive calls. Rule as the data show it: active = growth inhibition above about 70%; inactive = the rest.
Give your call using only these classes: label 1 = active, label 0 = inactive

Compound	Group Label
CC(C)c1ccc(C2NC(=S)NC3=C2c2ccccc2C3=O)cc1 (stereo not drawn)	label 0
C[Si](C)(C)Cc1ccccc1C(=O)O	label 0
c1ccc(C2=NNC3c4ccccc4-c4ccccc4N3C2)cc1 (stereo not drawn)	label 0
CC(=O)CC[N+](C)(C)C	label 0
O=S(=O)(Oc1c(Cl)cc(Cl)cc1Cl)c1ccccc1	label 0
O=C(O)CN(CCNC(=O)OCC1c2ccccc2-c2ccccc21)CCNC(=O)OCC1c2ccccc2-c2ccccc21	label 0
CCOC(=O)C1=C(C)NC(C)=C(C(=O)OCC)C1c1cccc([N+](=O)[O-])c1	label 0
O=[N+]([O-])C(=C(NCc1ccccc1)NCc1ccccc1)C(Cl)=C(Cl)Cl	label 0
[Cl][Pt+2][Cl].[NH-]CC1(C[NH-])CCCCC1	label 0
O=C1OC(c2ccc(Cl)cc2)Sc2ccccc21 (stereo not drawn)	label 0

Turning now to a further compound:
**Q:** So what was the verdict on CCCC#CCOC(=O)c1cc([N+](=O)[O-])cc([N+](=O)[O-])c1 in this test?
**A:** label 1

---

Assay Comment: NCI Yeast Anticancer Drug Screen. Data for the mlh1 strain (AID 171);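 further: 0% = growth of vehicle-treated control cultures of the same strain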
Measurement Context: S. cerevisiae mlh1 strain growth inhibition; at 3.7 µM; stronger effect = higher value
This is part of a sample that, as a whole, favours compounds with a hit. Of some 79,000 tested, about 15% had one in any assay.
Each item that follows carries a reported growth inhibition.
Value expressed in %; do not type the unit.

In the examples that follow, each entry is paired with its recorded growth inhibition.
Compound	U	growth inhibition
CN1CCN(c2ccc3nc(-c4ccc5nc(-c6ccc(O)cc6)[nH]c5c4)[nH]c3c2)CC1	%	-15
C[n+]1c(-c2ccc(NC(=O)c3ccc(C(=O)Nc4ccc(-c5cn6ccccc6[n+]5C)cc4)cc3)cc2)cn2ccccc21	%	1
O=S(=O)(CCC[C@H]1[C@@H](CCOCc2ccccc2)C2CCCN1O2)c1ccccc1 (some centres not stated)	%	3
Cc1ccc2oc(-c3cccc(N)c3)nc2c1	%	6
O=C1c2ccc(O)cc2C(=O)c2c(O)ccc(O)c21	%	20

**Q:** Look up growth inhibition of CN(NC(=O)/C(=C/C=C/c1ccccc1)NC(=O)c1ccccc1)C1=C(Cl)C(=O)[N+](c2ccccc2)=CC1 and report it.
**A:** 8

**Q:** Look up growth inhibition of Cc1cc(N(CCOS(C)(=O)=O)CCOS(C)(=O)=O)ccc1C=O and report it.
**A:** 28

**Q:** Look up growth inhibition of CCN(CC)CCSc1c2ccccc2nc2cc(NCC(=O)Nc3ccccc3-c3ccccc3NC(=O)CNc3ccc4c(SCCN(CC)CC)c5ccccc5nc4c3)ccc12 and report it.
**A:** -7

**Q:** Look up growth inhibition of O=Cc1ccccc1B(O)O and report it.
**A:** 14

**Q:** Look up growth inhibition of S=c1[nH]nc(Cc2ccccc2)c(=S)[nH]1 and report it.
**A:** 34

**Q:** Look up growth inhibition of C[Si](C)(C)Cc1ccccc1C(=O)O and report it.
**A:** 12

**Q:** Look up growth inhibition of O=S(=O)(O)CC[S][Sn]([S]CCS(=O)(=O)O)([c]1ccccc1)[c]1ccccc1 and report it.
**A:** 11

**Q:** Look up growth inhibition of O=c1oc(C(C(F)(F)F)C(F)(F)F)nc2ccccc12 and report it.
**A:** 12

---

Each item that follows carries a reported growth inhibition.
Assay Comment: NCI Yeast Anticancer Drug Screen. Data for the rad50 strain (AID 155);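 further: 0% = growth of vehicle-only cultures of the same strain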
Measurement Context: S. cerevisiae rad50 strain growth inhibition; at 1.2 µM; stronger effect = higher value
The panel holds about 79,000 compounds, 15% with a hit somewhere; the sample as a whole holds those more often.
Value expressed in %; do not type the unit.

**Q:** Look up growth inhibition of COc1ccc(C(=O)NCCN(C)C)c2nc3ccccc3cc12 and report it.
**A:** 45

**Q:** Look up growth inhibition of O=C(Nn1c(-c2ccccc2)nc2ccccc2c1=O)c1ccc(Cl)cc1 and report it.
**A:** 26

**Q:** Look up growth inhibition of CN(NC(=O)/C(=C/C=C/c1ccccc1)NC(=O)c1ccccc1)C1=C(Cl)C(=O)[N+](c2ccccc2)=CC1 and report it.
**A:** -4

**Q:** Look up growth inhibition of COc1ccc2c(Cc3c4ccccc4cc4ccccc34)cncc2c1O and report it.
**A:** 4

**Q:** Look up growth inhibition of O=C(CCC(=O)c1ccc(O)cc1)Oc1ccc(O)cc1 and report it.
**A:** 2

**Q:** Look up growth inhibition of Cc1ccc(Cl)c2c(=O)c3ccccc3[nH]c12 and report it.
**A:** -9

**Q:** Look up growth inhibition of Cc1ccc2nc(N/N=C/c3ccc(C)s3)cc(C)c2c1 and report it.
**A:** -2

**Q:** Look up growth inhibition of CCOC(=O)C1=C(C)NC(C)=C(C(=O)OCC)C1c1cccc([N+](=O)[O-])c1 and report it.
**A:** -39

**Q:** Look up growth inhibition of CCC(C)C(=O)OCC(=O)c1ccc(-c2ccccc2)cc1 (stereo not drawn) and report it.
**A:** 0

**Q:** Look up growth inhibition of S=C1NC2=C(CSC/C2=C\c2ccc(Cl)cc2)C(c2ccc(Cl)cc2)N1 (stereo not drawn) and report it.
**A:** 20

**Q:** Look up growth inhibition of CCN(CC)CCSc1c2ccccc2nc2cc(NCC(=O)Nc3ccccc3-c3ccccc3NC(=O)CNc3ccc4c(SCCN(CC)CC)c5ccccc5nc4c3)ccc12 and report it.
**A:** 13

**Q:** Look up growth inhibition of N=C(N)c1ccc(N=Nc2c(O)ccc3c2[nH]c2ccccc23)cc1 and report it.
**A:** -2

**Q:** Look up growth inhibition of OC1C#CCSCC#C/C=C\1 (stereo not drawn) and report it.
**A:** -24

**Q:** Look up growth inhibition of CCN(CC)c1ccc(N=Nc2cc(S(=O)(=O)O)ccc2O)c(O)c1 and report it.
**A:** -11

**Q:** Look up growth inhibition of CC1(C)CC(=O)C(C(CC(c2ccccc2)c2cc3c(cc2O)OCO3)C2=C(O)CC(C)(C)CC2=O)=C(O)C1 (stereo not drawn) and report it.
**A:** -2

**Q:** Look up growth inhibition of Cc1cc(NC(=S)SCc2ccc(Cl)cc2)ccc1Cl and report it.
**A:** 12

**Q:** Look up growth inhibition of O=Cc1ccccc1B(O)O and report it.
**A:** 31

**Q:** Look up growth inhibition of c1cncc(C(Nc2cccc3cccnc23)Nc2cccc3cccnc23)c1 and report it.
**A:** -103

---

Assay Comment: NCI Yeast Anticancer Drug Screen. Data for the bub3 strain (AID 167)
Measurement Context: S. cerevisiae bub3 mutant strain, at 50.0 µM (retest, dose inferred, filed as 5.0)
About 79,000 compounds went through this panel and 15% of them were active in at least one assay; those are over-represented in the sample as a whole. Active and inactive are the calls of the source. Rule as the data show it: active = growth inhibition above about 70%; inactive = the rest. Starred links: 1 amine or outer side, 2 acyl side, 3 side chain; linkers in the order of their positions; H or OH if unused. Positions of bridges follow the written chain, without caps; N, C: chain ends. Non-standard residues stand in square brackets, D forms with d. Residues, ends and D or L forms follow the SMILES beside them. Chains are numbered I, II in the order given. Actinocin(9to1) = Cc1c2oc3c(C)ccc(C(=O)[*:1])c3nc-2c(C(=O)[*:2])c(N)c1=O; aThr = C[C@H](O)[C@H](N)C(=O)O; NMeV = CN[C@H](C(=O)O)C(C)C; Sar = CNCC(=O)O
Give your call using only these classes: true (1) = active, false (0) = inactive

Compound	Group Label
O=c1oc(C(C(F)(F)F)C(F)(F)F)nc2ccccc12	false (0)
O=C1OC(c2ccc(Cl)cc2)Sc2ccccc21 (centres undefined)	false (0)
COc1ccc(/C=C2\CCc3ccccc3C2=O)cc1OC	true (1)
COc1ccc(C(=O)OCCc2ccccc2)cc1	true (1)
CC[C@@]1(OC(=O)CN(C)C)C(=O)OCc2c1cc1n(c2=O)Cc2cc3ccccc3nc2-1	true (1)
CCOC(=O)C1=C(C)NC(C)=C(C(=O)OCC)C1c1cccc([N+](=O)[O-])c1	false (0)
CC(C)c1ccc(C2NC(=S)NC3=C2c2ccccc2C3=O)cc1 (centres undefined)	true (1)
O=C1OC(/C=C/c2ccccc2)Sc2ccccc21 (centres undefined)	false (0)
CC(O)CN1C(=O)c2cccc3cc([N+](=O)[O-])cc(c23)C1=O (centres undefined)	false (0)
CCOc1ccc2ccc3cccnc3c2n1	false (0)

**Q:** So what was the verdict on CCSc1c2ccccc2c(-c2nc(F)nc(F)n2)n1CCc1ccccc1 in this test?
**A:** true (1)

**Q:** So what was the verdict on Cc1c2oc3c(C)ccc(C(=O)N[C@@H]4C(=O)N[C@H](C(C)C)C(=O)N5CCC[C@H]5C(=O)N(C)CC(=O)N(C)[C@@H](C(C)C)C(=O)O[C@H]4C)c3nc-2c(C(=O)N[C@@H]2C(=O)N[C@H](C(C)C)C(=O)N3CCC[C@H]3C(=O)N(C)CC(=O)N(C)[C@@H](C(C)C)C(=O)O[C@H]2C)c(N)c1=O (I: [aThr][dV]P[Sar][NMeV] / II: [aThr][dV]P[Sar][NMeV]; ester I:1-I:C, II:1-II:C; linker I:N-II:N via Actinocin(9to1)) in this test?
**A:** true (1)

**Q:** So what was the verdict on Cc1ccc(Nc2n[nH]c(=S)s2)cc1C in this test?
**A:** true (1)

**Q:** So what was the verdict on COc1ccc(C(=O)NCCN(C)C)c2nc3ccccc3cc12 in this test?
**A:** false (0)

**Q:** So what was the verdict on O=C(CSS(=O)(=O)O)c1ccccc1 in this test?
**A:** true (1)

**Q:** So what was the verdict on COc1ccc(/C=C2\S/C(=N/Nc3nc(-c4ccccc4)cs3)NC2=O)cc1OC in this test?
**A:** true (1)

**Q:** So what was the verdict on Cc1cc(N(CCOS(C)(=O)=O)CCOS(C)(=O)=O)ccc1C=O in this test?
**A:** false (0)

Measured values drawn from PubChem BioAssay (NCI) for this set.
